Answer each item with its documented CYP inhibition (% of control) 3A4.
# systemName: CYP3A4 (Homo sapiens (Human), UniProt P08684)
# Sequence (P08684 whole entry): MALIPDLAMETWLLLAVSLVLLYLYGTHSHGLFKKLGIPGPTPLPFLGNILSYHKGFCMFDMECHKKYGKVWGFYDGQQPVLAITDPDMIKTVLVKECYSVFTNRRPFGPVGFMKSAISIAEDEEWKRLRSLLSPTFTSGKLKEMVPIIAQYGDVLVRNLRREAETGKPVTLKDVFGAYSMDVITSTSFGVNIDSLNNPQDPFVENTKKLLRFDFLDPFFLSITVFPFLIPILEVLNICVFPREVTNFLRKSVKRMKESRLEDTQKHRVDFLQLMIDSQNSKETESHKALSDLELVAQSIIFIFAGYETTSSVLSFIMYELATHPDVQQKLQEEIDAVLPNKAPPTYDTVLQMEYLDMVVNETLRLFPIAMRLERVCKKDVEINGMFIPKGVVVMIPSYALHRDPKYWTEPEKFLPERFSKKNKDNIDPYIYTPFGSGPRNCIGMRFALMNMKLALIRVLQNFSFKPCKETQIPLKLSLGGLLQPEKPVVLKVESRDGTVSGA
# assayProtocol: Cytochrome P450 activity inhibition, CYP3A4
# Assay type: in vitro ADME
# measurementConditions: 10 μM, human liver microsomes

Request: Give the reported value of CYP inhibition (% of control) 3A4 for this record: Cc1ccc(/C(=C(\CCCO)c2ccccc2)c2ccc(N3CCN(C(C)C)CC3)cc2)cc1 [Compound 18b]
Response: 53 % of control

Request: Give the reported value of CYP inhibition (% of control) 3A4 for this record: OCCC/C(=C(\c1ccc(Br)cc1)c1ccc(N2CCNCC2)cc1)c1ccccc1 [Compound 20a]
Response: 55 % of control

Request: Give the reported value of CYP inhibition (% of control) 3A4 for this record: CN1CCCC1CCOc1ccc(/C(=C(/CCCO)c2ccccc2)c2ccc(O)cc2)cc1 (stereo not shown)
Response: 83.7 % of control

Request: Give the reported value of CYP inhibition (% of control) 3A4 for this record: "OCCC/C(=C(\c1ccc(O)cc1)c1ccc(OCCN2CCCC2)cc1)c1ccccc1"
Response: 68.1 % of control
